assayed_system: human GIRK1/4 channels (Homo sapiens, UniProt P48544+P48549)
Construct: Full-length human GIRK1 cDNA was cloned from HuH cell- and HeLa cell-derived cDNA libraries; Full-length GIRK4 cDNA was amplified from a human heart cDNA library; expressed in transfected cells; host or cells: FLP-IN-CHO cells (Invitrogen)
Sequence (P48549 1-501): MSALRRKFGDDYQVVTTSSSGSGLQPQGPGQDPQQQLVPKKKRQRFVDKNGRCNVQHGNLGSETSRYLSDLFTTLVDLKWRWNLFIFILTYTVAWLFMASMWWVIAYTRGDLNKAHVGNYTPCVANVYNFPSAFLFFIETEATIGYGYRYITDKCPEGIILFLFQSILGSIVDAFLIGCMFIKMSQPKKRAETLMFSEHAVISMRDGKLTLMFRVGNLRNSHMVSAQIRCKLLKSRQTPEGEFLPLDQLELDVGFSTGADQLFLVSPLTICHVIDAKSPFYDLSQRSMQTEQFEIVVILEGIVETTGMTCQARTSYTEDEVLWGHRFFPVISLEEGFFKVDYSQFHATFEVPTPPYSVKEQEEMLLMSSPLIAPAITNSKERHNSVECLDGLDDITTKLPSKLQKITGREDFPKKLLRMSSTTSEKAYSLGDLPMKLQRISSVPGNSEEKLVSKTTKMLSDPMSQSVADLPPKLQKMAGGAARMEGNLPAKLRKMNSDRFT
Sequence (P48544 1-419): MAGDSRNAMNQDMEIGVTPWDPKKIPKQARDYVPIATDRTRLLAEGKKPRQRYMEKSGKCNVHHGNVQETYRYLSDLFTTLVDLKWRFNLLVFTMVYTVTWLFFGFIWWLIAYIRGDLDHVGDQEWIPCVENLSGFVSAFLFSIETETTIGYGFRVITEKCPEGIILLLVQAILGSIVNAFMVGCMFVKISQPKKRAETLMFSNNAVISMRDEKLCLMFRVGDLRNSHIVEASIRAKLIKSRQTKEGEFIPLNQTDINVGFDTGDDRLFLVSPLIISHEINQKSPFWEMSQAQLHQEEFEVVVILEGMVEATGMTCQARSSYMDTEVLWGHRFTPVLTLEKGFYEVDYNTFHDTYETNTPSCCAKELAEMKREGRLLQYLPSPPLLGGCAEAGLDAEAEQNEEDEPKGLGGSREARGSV
assay_method_text: Measurement of human GIRK1/4 channel current by whole-cell patch clamp method (human GIRK1/4-expressing CHO cell line)
Type: cell-based
assay_setup: whole-cell patch clamp, human GIRK1/4-expressing CHO cells; step end current at −120 mV; test compound 0.1, 1, 10 μM; read-out: GIRK¼ IC50
Where a name gives a salt, the structure may show the parent alone.
attribute_measured: IC50 (nM)
Give bare numbers, in nM.

compound | assayed_system | recorded_number
Cc1ccccc1CN(CCCOc1ccc2c(c1)N(C)C(=O)C(C)(C)C(=O)N2C)CCc1cccnc1 [Example 50, dihydrochloride] | human GIRK1/4 channels (Homo sapiens, UniProt P48544+P48549) | 460
CCN1C(=O)C(C)(C)C(=O)N(C)c2cc(OCCCN(CCn3ccc4ccoc4c3=O)Cc3ccccc3C)ccc21 [Example 398] | human GIRK1/4 channels (Homo sapiens, UniProt P48544+P48549) | 490
CCN1C(=O)C(C)(C)C(=O)N(C)c2cc(OCCCN(CCn3ccc4ccoc4c3=O)Cc3ccncc3)ccc21 [Example 31, dihydrochloride] | human GIRK1/4 channels (Homo sapiens, UniProt P48544+P48549) | 2900
CCN1C(=O)C(C)(C)C(=O)N(C)c2cc(OCCCN(CCn3ccc4sccc4c3=O)Cc3cccnc3C)ccc21 [Example 595] | human GIRK1/4 channels (Homo sapiens, UniProt P48544+P48549) | 790
CCN1C(=O)C(C)(C)C(=O)N(C)c2cc(OCCCN(CCn3ccc4ccccc4c3=O)Cc3ccncc3)ccc21 [Example 23, dihydrochloride] | human GIRK1/4 channels (Homo sapiens, UniProt P48544+P48549) | 250

Moving on to another compound below.
Which IC50 is listed for CN1C(=O)C(C)(C)C(=O)N(C)c2cc(OCCCN(CCc3cccnc3)Cc3ccnc4ccccc34)ccc21 [Example 51, trihydrochloride] ?
1500

// provenance: patent US8664217B2
